B1: POU domain, class 4, transcription factor 2, residues 256 to 327; numbered along this chain, Q12837 (parent)
chain: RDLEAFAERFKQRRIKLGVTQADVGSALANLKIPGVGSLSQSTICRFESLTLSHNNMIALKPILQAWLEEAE

- Variants of: B1
- test.protocol: abundance fitness (aPCA) (normalised: wild type 0, dead -1); higher = more abundant; growth selection in yeast, the domain comes from the species named
- test.conditions: Homo sapiens
Label scheme for abundance fitness: lower than -0.2 is NOT MET, -0.2 and above is MET.

Worked cases, answers included:
*Q* Identify whether the reported abundance fitness of the following variant is -0.2 or greater: `E48R`
*A* NOT MET

*Q* Dear colleague, could you confirm whether `N30A` has abundance fitness at or above -0.2?
*A* MET

Next:
*Q* Form field: abundance fitness at least -0.2? Entry: `V36Q`
*A* MET

*Q* Tell me whether abundance fitness is at least -0.2 here: `M57S`
*A* NOT MET

*Q* // inclusive: abundance fitness at least -0.2? input: `S38D`
*A* NOT MET

*Q* For this variant, is measured abundance fitness -0.2 or higher? `N56Y`
*A* NOT MET

*Q* Does the reported abundance fitness for `N55Q` fall at or above the -0.2 mark?
*A* MET

*Q* Test whether the variant `T43S` records abundance fitness of -0.2 or higher.
*A* NOT MET

Value source: the Human Domainome abundance scans (Beltran et al. 2025)
